Source: patent US10245328B2

- experiment: Relaxation rate measurement (R1, R2) in PBS and in PBS solution of HSA
- Format: physicochemical
- experimental-context: PBS solution of 0.67 mM HSA, 64 MHz, 293K
R1 in 0.67 mM HSA listing for selected molecules.
quantity-name: R1 in 0.67 mM HSA (mM⁻¹ s⁻¹)

{"molecule": "NCCNC(=O)C1CCC(CNC(=O)CN2CCN(CC(=O)[O-])CCN(CC(=O)[O-])CCN(CC(=O)[O-])CC2)CC1.[Gd+3] (stereo not shown) [2c]", "recorded-value": 3.74}
{"molecule": "O=C([O-])CN1CCN(CC(=O)[O-])CCN(CC(=O)NCC2CCC(C(=O)O)CC2)CCN(CC(=O)[O-])CC1.[Gd+3] (stereo not shown) [2b]", "recorded-value": 3.98}
{"molecule": "CNC[C@H](O)[C@@H](O)[C@H](O)[C@H](O)CO.O=C([O-])CN1CCN(CC(=O)[O-])CCN(CC(=O)O)CCN(CC(=O)[O-])CC1.[Gd+3] [Dotarem, Gd-DOTA, reference compound]", "recorded-value": 4.05}
{"molecule": "NC1CCC(NC(=O)CN2CCN(CC(=O)[O-])CCN(CC(=O)[O-])CCN(CC(=O)[O-])CC2)CC1.[Gd+3] (stereo not shown) [2d]", "recorded-value": 3.91}
{"molecule": "O=C([O-])CN1CCN(CC(=O)[O-])CCN(CC(=O)NCC2CCCCC2)CCN(CC(=O)[O-])CC1.[Gd+3] [2e]", "recorded-value": 5.21}
{"molecule": "CCOC(=O)C1CCC(CNC(=O)CN2CCN(CC(=O)[O-])CCN(CC(=O)[O-])CCN(CC(=O)[O-])CC2)CC1.[Gd+3] (stereo not shown) [2a]", "recorded-value": 5.11}
{"molecule": "O=C([O-])CN1CCN(CC(=O)[O-])CCN([C@H](CO)[C@H](O)CO)CCN(CC(=O)[O-])CC1.[Gd+3] (racemic) [Gadovist, Gd-BT-DO3A, reference compound]", "recorded-value": 4.81}
